The measured values listed here are drawn from patent US20240262826A1.

- assayed-system: wild type c-kit (Homo sapiens (Human))
- Sequence (P10721 26-976): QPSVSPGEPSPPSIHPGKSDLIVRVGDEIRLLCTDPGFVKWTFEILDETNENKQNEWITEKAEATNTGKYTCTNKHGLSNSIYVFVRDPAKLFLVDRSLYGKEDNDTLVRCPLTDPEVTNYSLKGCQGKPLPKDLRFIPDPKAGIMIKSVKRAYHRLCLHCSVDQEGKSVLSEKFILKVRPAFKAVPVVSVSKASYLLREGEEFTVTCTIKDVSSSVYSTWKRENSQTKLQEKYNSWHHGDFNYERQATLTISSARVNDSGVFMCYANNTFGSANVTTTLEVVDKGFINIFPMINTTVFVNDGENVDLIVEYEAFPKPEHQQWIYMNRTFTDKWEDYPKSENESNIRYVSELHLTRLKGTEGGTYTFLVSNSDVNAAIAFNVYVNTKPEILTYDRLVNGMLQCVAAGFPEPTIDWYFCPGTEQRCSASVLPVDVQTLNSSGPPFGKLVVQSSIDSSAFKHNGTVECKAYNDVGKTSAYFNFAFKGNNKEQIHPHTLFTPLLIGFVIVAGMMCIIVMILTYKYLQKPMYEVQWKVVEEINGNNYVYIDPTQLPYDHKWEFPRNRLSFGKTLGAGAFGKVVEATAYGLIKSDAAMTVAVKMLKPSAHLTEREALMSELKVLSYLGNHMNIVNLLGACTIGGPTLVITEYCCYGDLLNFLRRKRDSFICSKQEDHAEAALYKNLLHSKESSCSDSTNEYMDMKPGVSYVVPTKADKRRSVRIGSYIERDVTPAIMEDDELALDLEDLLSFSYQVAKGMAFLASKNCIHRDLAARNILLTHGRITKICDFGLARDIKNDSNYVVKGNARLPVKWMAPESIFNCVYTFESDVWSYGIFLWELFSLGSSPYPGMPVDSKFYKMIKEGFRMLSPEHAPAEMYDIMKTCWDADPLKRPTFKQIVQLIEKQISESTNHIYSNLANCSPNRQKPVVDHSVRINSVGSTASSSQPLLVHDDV
- experiment: PathScan phospho c-kit (Tyr719) sandwich ELISA in SCF-stimulated M-07e cells (pKIT assay)
- Format: cell-based
- condition: ELISA assay (values not marked *)
assay-readout: IC50 (nM)

See these solved cases before continuing.
- cpd-smiles: "Cc1nnn(-c2ccc(C)c(NC(=O)c3cnn4ccc(-c5cn(C[C@H]6CNCCO6)nc5C)cc34)c2)n1"
  value-units: "nM"
  IC50: 0.8
- cpd-smiles: "Cc1ccc(-c2nnn(C3CN(S(C)(=O)=O)C3)n2)cc1NC(=O)c1cnn2ccc(COCC(F)F)cc12"
  value-units: "nM"
  IC50: 18.8
- cpd-smiles: "Cc1cc(F)c(-c2nnn(C3CC3)n2)cc1NC(=O)c1cnn2ccc(-c3cn(C[C@@H](C)O)nc3C)cc12"
  value-units: "nM"
  IC50: 0.3
- cpd-smiles: "COCCNc1ccn2ncc(C(=O)Nc3cc(-c4nnn(C5CN(C(=O)OC)C5)n4)ccc3F)c2c1"
  value-units: "nM"
  IC50: 12.4
- cpd-smiles: "Cc1ccc(-c2nnn(C3CC3)n2)cc1NC(=O)c1cnn2ccc(-c3cnn(CC(C)(C)O)c3)cc12"
  value-units: "nM"
  IC50: 0.5

1. Cc1ccc(-n2nnc(C3CC3)n2)cc1NC(=O)c1cnn2cc(-c3cnn(CC4(O)CCOCC4)c3)cc(F)c12
2. O=C(Nc1cc(-c2nnn(CC34COC(C3)C4)n2)ccc1Cl)c1cnn2ccccc12
-- ask Endpoint returns the identifier whose IC50 is numerically larger, either 1 or 2 . In your reply, give the label of the chosen option.
-- reply 2
(2: 29.6 nM, 1: 0.5 nM)
